- STUDY SYSTEM: Galectin-4 (Homo sapiens, UniProt P56470)
- Sequence (P56470 whole entry): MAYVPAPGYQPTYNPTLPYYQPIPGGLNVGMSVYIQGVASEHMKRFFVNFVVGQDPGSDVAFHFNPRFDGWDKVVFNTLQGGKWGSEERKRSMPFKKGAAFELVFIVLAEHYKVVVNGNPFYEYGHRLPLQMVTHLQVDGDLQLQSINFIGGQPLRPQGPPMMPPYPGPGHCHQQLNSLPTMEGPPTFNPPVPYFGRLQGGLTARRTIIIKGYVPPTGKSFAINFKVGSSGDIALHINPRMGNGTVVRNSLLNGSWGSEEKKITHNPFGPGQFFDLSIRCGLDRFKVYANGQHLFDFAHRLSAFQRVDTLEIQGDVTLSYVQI
- ASSAY PROCEDURE: Binding affinity to human galectin-4 component 1 by surface plasmon resonance method
QUANTITY: Kd (µM)
I only need the number, in µM, no unit after it.

Complete the entry with Kd for "CC(=O)N[C@H]1[C@@H](OCCCCCCCCCCCCS)O[C@H](CO)[C@@H](O[C@@H]2O[C@H](CO)[C@H](O)[C@H](O)[C@H]2O)[C@@H]1O"
1.26

---

What Activity was measured for each of the following?
- STUDY SYSTEM: Galectin-8 (Homo sapiens) (UniProt O00214)
- Sequence (O00214 whole entry): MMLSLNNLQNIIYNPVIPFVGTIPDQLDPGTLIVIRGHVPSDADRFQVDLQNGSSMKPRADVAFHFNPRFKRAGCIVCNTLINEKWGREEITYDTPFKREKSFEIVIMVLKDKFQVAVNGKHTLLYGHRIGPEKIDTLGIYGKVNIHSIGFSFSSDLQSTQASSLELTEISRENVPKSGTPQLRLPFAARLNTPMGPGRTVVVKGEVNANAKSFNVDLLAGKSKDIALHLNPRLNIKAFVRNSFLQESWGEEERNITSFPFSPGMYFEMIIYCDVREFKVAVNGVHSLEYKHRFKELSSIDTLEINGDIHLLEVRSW
- ASSAY PROCEDURE: Binding affinity to human galectin-8 by surface plasmon resonance method

Complete the entry with Activity for "OC[C@H]1O[C@@H](O[C@H]2[C@H](O)C[C@@H](OCCCCCCCCCCCCS)O[C@@H]2CO)[C@H](O)[C@@H](O)[C@H]1O"
74.5 a.u.

Complete the entry with Activity for OC[C@H]1OC(O[C@H]2[C@H](O)[C@@H](O)[C@H](OCCCCCCCCCCCCS)O[C@@H]2CO)[C@H](O)[C@@H](O)[C@H]1O (stereo not given in full)
368 a.u.

Complete the entry with Activity for "CC(=O)N[C@H]1[C@@H](OCCCCCCCCCCCCS)O[C@H](CO)[C@@H](O[C@@H]2O[C@H](CO)[C@H](O)[C@H](O)[C@H]2O)[C@@H]1O"
163 a.u.

Complete the entry with Activity for "OC[C@H]1O[C@@H](OCCCCCCCCCCCCS)[C@H](O)[C@@H](O)[C@H]1O"
34.1 a.u.
